This collection of values is drawn from patent US7056679.

Measured ETAG (OD) values are reported for all entries that follow.
- experimental.system: T1, antibody raised against ETAG
- T1 construct: Coated at 500 ng/well; also called E-tag antibody
- protocol.details: phage ELISA

# binder, output.unit, ETAG (OD)
records = [
    ("WWERFVWGRPVDDGVVVMATAAAGAPVPYPDPLEPRP [DGI-2-20R-3-B1]", "OD", 14.5),
    ("GRWDGWEVCGIWGADDCASGAAAGAPVPYPDPLEPRP [DGI-2-20R-4-H1]", "OD", 14),
    ("VHSQGRMWAIPGLRGGTGASAAAGAPVPYPDPLEPRP [DGI-2-20R-3-D7]", "OD", 18.7),
    ("RISVGQCGTSRCGGGRRGGGAAAGAPVPYPDPLEPRP [DGI-2-20F-PP-D1]", "OD", 3),
    ("SSVWATWGSDLRTFGSVGFLAAAGAPVPYPDPLEPRP [DGI-2-20F-PP-C7]", "OD", 11),
    ("DGI-2-40F-4-E62 (peptide) peptide: TCWHRGLNVVRYSVNFGVRDARLTTQGMAWFPPGCGQGCVAAAGAPVPYPDPLEPRP", "OD", 14.8),
]
